- tested-target: T1, human Y2 receptor (human, UniProt P49146 1-381)
- T1 construct: whole, on cells; used as membrane fraction of hY2R/CHO cells; also called human NPY2R; hY2R
- T1 sequence (looked up): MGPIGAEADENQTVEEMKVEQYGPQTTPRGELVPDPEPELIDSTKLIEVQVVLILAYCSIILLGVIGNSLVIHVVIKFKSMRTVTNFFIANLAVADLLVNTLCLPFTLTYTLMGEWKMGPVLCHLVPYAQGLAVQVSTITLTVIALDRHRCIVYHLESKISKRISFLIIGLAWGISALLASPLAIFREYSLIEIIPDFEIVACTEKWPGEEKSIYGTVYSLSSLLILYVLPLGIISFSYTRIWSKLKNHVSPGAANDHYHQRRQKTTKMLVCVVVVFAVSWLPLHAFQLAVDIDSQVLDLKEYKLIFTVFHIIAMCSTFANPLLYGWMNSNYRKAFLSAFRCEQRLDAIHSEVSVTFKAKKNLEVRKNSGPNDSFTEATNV
- assay: RBA: [125I]-PYY displacement, hY2R/CHO membranes
Non-standard residues stand in square brackets, D forms with d. *: point of attachment. Amidino = amidino group, N=C(N)*; tBuAla = CC(C)(C)C[C@H](N)C(=O)O; Cha = N[C@@H](CC1CCCCC1)C(=O)O; Aib = CC(C)(N)C(=O)O
result-type: IC50 Ratio (vs PYY(3-36))
A complete answer gives the number and then names the unit.

Find the recorded IC50 Ratio (vs PYY(3-36)) belonging to Amidino-S[dP]RH[Cha][tBuAla]NK[Aib]TRQR[Cha]-NH2 (SMILES C[C@@H](O)[C@H](NC(=O)C(C)(C)NC(=O)[C@H](CCCCN)NC(=O)[C@H](CC(N)=O)NC(=O)[C@H](CC(C)(C)C)NC(=O)[C@H](CC1CCCCC1)NC(=O)[C@H](Cc1c[nH]cn1)NC(=O)[C@H](CCCNC(=N)N)NC(=O)[C@H]1CCCN1C(=O)[C@H](CO)NC(=N)N)C(=O)N[C@@H](CCCNC(=N)N)C(=O)N[C@@H](CCC(N)=O)C(=O)N[C@@H](CCCNC(=N)N)C(=O)N[C@@H](CC1CCCCC1)C(N)=O, also called compound No. 186) [Amidino-[D-Pro24, Cha27,36, Leu(Me)28, Lys30, Aib31]-PYY(23-36)] and report it.
0.43 ratio
